molecular target: C. elegans Slo-1a (Caenorhabditis elegans); test: In vitro assay 1: C. elegans Slo-1a, action at a recombinant C. elegans CHO cell line (membrane potential measurement)
Sequence (Q95V25 whole entry): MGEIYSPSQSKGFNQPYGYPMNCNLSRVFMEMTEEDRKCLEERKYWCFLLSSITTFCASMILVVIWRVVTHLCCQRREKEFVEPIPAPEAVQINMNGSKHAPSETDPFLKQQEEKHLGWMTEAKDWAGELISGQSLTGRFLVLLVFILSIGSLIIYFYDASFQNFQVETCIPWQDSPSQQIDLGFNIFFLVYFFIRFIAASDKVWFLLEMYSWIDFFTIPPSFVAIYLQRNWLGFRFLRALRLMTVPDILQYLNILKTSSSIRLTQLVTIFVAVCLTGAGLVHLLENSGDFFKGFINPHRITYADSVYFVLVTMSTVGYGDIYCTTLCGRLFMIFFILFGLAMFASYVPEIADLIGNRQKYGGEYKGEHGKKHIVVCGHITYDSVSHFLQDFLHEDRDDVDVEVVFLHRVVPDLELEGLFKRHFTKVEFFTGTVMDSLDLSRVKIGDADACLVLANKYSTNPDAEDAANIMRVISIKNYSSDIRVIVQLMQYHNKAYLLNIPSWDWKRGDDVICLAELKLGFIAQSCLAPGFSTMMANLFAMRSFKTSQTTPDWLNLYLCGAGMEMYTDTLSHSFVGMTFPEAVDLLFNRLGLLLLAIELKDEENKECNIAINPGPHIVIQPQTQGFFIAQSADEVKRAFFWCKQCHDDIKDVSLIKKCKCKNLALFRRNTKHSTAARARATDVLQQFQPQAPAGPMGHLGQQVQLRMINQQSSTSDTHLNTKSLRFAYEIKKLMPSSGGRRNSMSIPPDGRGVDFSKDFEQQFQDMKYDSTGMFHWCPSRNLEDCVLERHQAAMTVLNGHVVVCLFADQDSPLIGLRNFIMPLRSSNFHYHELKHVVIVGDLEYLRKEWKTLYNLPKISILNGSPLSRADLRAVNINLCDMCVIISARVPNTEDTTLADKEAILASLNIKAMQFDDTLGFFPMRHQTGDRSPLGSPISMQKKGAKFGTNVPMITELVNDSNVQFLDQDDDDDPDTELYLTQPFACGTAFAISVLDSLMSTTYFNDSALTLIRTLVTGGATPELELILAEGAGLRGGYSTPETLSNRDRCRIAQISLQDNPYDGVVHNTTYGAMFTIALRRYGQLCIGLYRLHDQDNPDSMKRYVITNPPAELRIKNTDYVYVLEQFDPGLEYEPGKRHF
// EC50 lookup, one value per entry
recordedEndpoint: EC50 (nM)

COc1c(F)ccc(-c2c(C)nn3c(C(C)C)c(C(=O)N[C@H]4CCOc5ccccc54)cnc23)c1F [Example 192] :: 0.398
COc1cccc(-c2c(C)nn3c(C(C)C)c(C(=O)N[C@H]4CCOc5ccccc54)cnc23)c1F [Example 184] :: 3.16
COCc1cccc(-c2c(C(F)F)nn3c(C(C)C)c(C(=O)N[C@H]4CCc5ccccc54)cnc23)c1 [Example 430] :: 15.8
Cc1nn2c(C(C)C)c(C(=O)N[C@H]3CCOc4ccccc43)cnc2c1-c1ccc(F)c(Cl)c1F [Example 213] :: 1.58

----------
assay: log P by HPLC on reversed phase columns (Method L0; [a] acidic, [b] neutral range)
recordedEndpoint: chromatographic logP

Cc1nn2c(C(C)C)c(C(=O)N[C@H]3CCc4ccccc43)cnc2c1-c1cccc(N2CCOCC2)c1 :: 4.26
Cc1nn2c(C3CC3)c(C(=O)N[C@H]3CCOc4ccccc43)cnc2c1-c1cccc(OC(F)(F)F)c1 :: 4.47
Cc1nn2c(C(C)C)c(C(=O)N[C@H]3CCOc4ccccc43)cnc2c1-c1cccc(N(C)C)c1F :: 4.18
Cc1nn2c(C(C)C)c(C(=O)N[C@H]3CCOc4ccccc43)cnc2c1-c1ccc(F)c(F)c1F :: 4.54
Cc1nn2c(C(C)C)c(C(=O)N[C@H]3CCc4ccccc43)cnc2c1-c1cccc(COCC2CC2)c1 :: 5.24
Cc1nc2c(-c3cccc(Cl)c3Cl)c(C)nn2c(C)c1C(=O)N[C@H]1CCOc2ccccc21 :: 3.86
COc1cc(-c2c(C)nn3c(C(C)C)c(C(=O)N[C@H]4CCCc5ccccc54)cnc23)cc(C(F)(F)F)c1 :: 5.7
COCc1cccc(-c2c(C)nn3c(C(C)C)c(C(=O)N[C@H]4CCc5ccccc54)cnc23)c1 :: 4.43
Cc1nn2c(C3CC3)c(C(=O)N[C@H]3CCc4ccccc43)cnc2c1-c1c(F)ccc(Cl)c1F :: 4.18
Cc1nn2c(C3CC3)c(C(=O)N[C@H]3CCOc4ccccc43)cnc2c1-c1cc(F)cc(F)c1F :: 3.72
Cc1nn2c(C3CC3)c(C(=O)N[C@H]3CCc4ccccc43)cnc2c1-c1c(F)cccc1F :: 3.66
Cc1nn2c(C3CC3)c(C(=O)N[C@H]3CCOc4ccccc43)cnc2c1-c1ccccc1F :: 3.45
Cc1nn2c(C3CC3)c(C(=O)N[C@H]3CCOc4ccccc43)cnc2c1-c1cccc(C(F)(F)F)c1 :: 4.31
COc1cccc(-c2c(C)nn3c(C4CC4)c(C(=O)N[C@H]4CCOc5ccccc54)cnc23)c1 :: 3.5
Cc1nn2c(C(C)C)c(C(=O)N[C@H]3CCc4ccccc43)cnc2c1-c1cccc(F)n1 :: 4.6

----------
assay: log P by HPLC on reversed phase columns (Method L0; [a] acidic, [b] neutral range)
Note that class boundaries on chromatographic logP are b0 (below 4), b1 (4 to below 5), b2 (5 or more)

Cc1nn2c(C(C)C)c(C(=O)N[C@H]3CCOc4ccccc43)cnc2c1-c1cc(Cl)cc(Cl)c1 :: b2
COc1cccc(-c2c(C3CC3)nn3c(C(C)C)c(C(=O)N[C@H]4CCc5ccccc54)cnc23)c1 :: b2
Cc1nn2c(C3CC3)c(C(=O)N[C@H]3CCc4ccccc43)cnc2c1-c1ccccc1F :: b0
Cc1nn2c(C(C)C)c(C(=O)N[C@H]3CCOc4ccccc43)cnc2c1-c1cccc(C(F)F)c1 :: b1
Cc1nn2c(C3CC3)c(C(=O)N[C@H]3CCc4ccccc43)cnc2c1-c1cc(Cl)cc(C(F)(F)F)c1 :: b2
Cc1nn2c(C(C)C)c(C(=O)N[C@H]3CCOc4ccccc43)cnc2c1-c1cccc(N(C)C)c1 :: b0
Cc1nn2c(C(C)C)c(C(=O)N[C@H]3CCc4ccccc43)cnc2c1-c1ccc(F)c(F)c1 :: b1
Cc1nn2c(C3CC3)c(C(=O)N[C@H]3CCOc4ccccc43)cnc2c1-c1ccc(F)cc1 :: b0
Cc1nn2c(C(C)C)c(C(=O)N[C@H]3CCCc4ccccc43)cnc2c1-c1cc(Cl)ccc1Cl :: b2
COCCn1cc(-c2c(C)nn3c(C(C)C)c(C(=O)N[C@H]4CCc5ccccc54)cnc23)cn1 :: b0
Cc1nn2c(C(C)C)c(C(=O)N[C@H]3CCc4ccccc43)cnc2c1-c1ccccc1F :: b1
CC(C)c1c(C(=O)N[C@H]2CCc3ccccc32)cnc2c(-c3cccc(C(F)(F)F)c3)c(C(F)(F)F)nn12 :: b2
Cc1nn2c(C(C)C)c(C(=O)N[C@H]3CCc4ccccc43)cnc2c1-c1cc(Cl)cc(C(F)(F)F)c1 :: b2
CSc1nn2c(C(C)C)c(C(=O)N[C@H]3CCOc4ccccc43)cnc2c1-c1cc(Cl)cc(Cl)c1 :: b2
CC(C)c1c(C(=O)N[C@H]2CCOc3ccccc32)cnc2c(-c3cc(Cl)cc(C(F)(F)F)c3)c(C(F)(F)F)nn12 :: b2
CCCOCc1cccc(-c2c(C)nn3c(C(C)C)c(C(=O)N[C@H]4CCc5ccccc54)cnc23)c1 :: b2
Cc1nn2c(C3CC3)c(C(=O)N[C@H]3CCOc4ccccc43)cnc2c1-c1c(Cl)cccc1Cl :: b0
Cc1nn2c(C3CC3)c(C(=O)N[C@H]3CCOc4ccccc43)cnc2c1-c1cnn(CC2CC2)c1 :: b0
COCc1c(C(=O)N[C@H]2CCc3ccccc32)cnc2c(-c3cccc(C(F)(F)F)c3)c(C)nn12 :: b1
Cc1nn2c(C(C)C)c(C(=O)N[C@H]3CCc4ccccc43)cnc2c1-c1cccc(C(F)(F)F)c1 :: b2
Cc1nn2c(C(C)C)c(C(=O)N[C@H]3CCCc4ccccc43)cnc2c1-c1cccc(C(F)(F)F)c1 :: b2
Cc1nn2c(C(C)C)c(C(=O)N[C@H]3CCCc4ccccc43)cnc2c1-c1ccc2c(c1)OC(F)(F)O2 :: b2
Cc1nn2c(C(C)C)c(C(=O)N[C@H]3CCOc4ccccc43)cnc2c1-c1ccccc1F :: b1
Cc1nn2c(C(C)C)c(C(=O)N[C@H]3CCOc4ccccc43)cnc2c1-c1cccc(Cl)c1F :: b1

Recorded values, source patent US11001590B2.
